Tested on: OATP1B3
assay.protocol: Cell viability assay (BrdU incorporation) on HEK293-OATP1B3 cells overexpressing OATP1B3
Format: cell-based
recorded.conditions: human, HEK293-OATP1B3 cells (overexpress OATP1B3), 96 h drug exposure, read-out: Cytotoxicity on HEK-OATP1B3 cells EC50
Starred links: 1 amine or outer side, 2 acyl side, 3 side chain; linkers in the order of their positions; H or OH if unused. Positions of bridges follow the written chain, without caps; N, C: chain ends. Non-standard residues stand in square brackets, D forms with d. Residues, ends and D or L forms follow the SMILES beside them. Trp(2-yl) = O=C([C@H](Cc1c([*:3])[nH]c2ccccc12)N[*:1])[*:2]; Ile(4R-OH,5-OH) = C[C@H]([C@H](N)C(=O)O)[C@@H](O)CO; Hyp = O=C(O)[C@@H]1C[C@@H](O)CN1; Tle = CC(C)(C)[C@H](N)C(=O)O; Aze = O=C(O)[C@@H]1CCN1; Sar = CNCC(=O)O
Below, each entry is listed with its recorded EC50 at 96 h.

// solved cases for EC50 at 96 h follow
molecule="CC[C@H](C)[C@@H]1NC(=O)CNC(=O)[C@@H]2Cc3c([nH]c4ccccc34)SC[C@H](NC(=O)CN(C)C1=O)C(=O)N[C@@H](CC(N)=O)C(=O)N1C[C@H](O)C[C@H]1C(=O)N[C@@H]([C@@H](C)[C@@H](O)CO)C(=O)N2 [Compound 7l] (cyclo(CN[Hyp][Ile(4R-OH,5-OH)][Trp(2-yl)]GI[Sar]); thioether 1-5)" result_value="29 nM"
molecule="CC[C@H](C)[C@@H]1NC(=O)CNC(=O)[C@@H]2Cc3c([nH]c4ccccc34)SC[C@H](NC(=O)CNC1=O)C(=O)N[C@@H](CC(N)=O)C(=O)N1CC[C@H]1C(=O)N[C@@H]([C@@H](C)[C@@H](O)CO)C(=O)N2 [Compound 7n] (cyclo([Aze][Ile(4R-OH,5-OH)][Trp(2-yl)]GIGCN); thioether 3-7)" result_value="> 100 nM"
molecule="C[C@H]([C@@H]1NC(=O)[C@@H]2C[C@@H](O)CN2C(=O)[C@H](CC(N)=O)NC(=O)[C@@H]2CSc3[nH]c4ccccc4c3C[C@H](NC1=O)C(=O)NCC(=O)N[C@@H](C(C)(C)C)C(=O)NCC(=O)N2)[C@@H](O)CO [Compound 7p] (cyclo(CN[Hyp][Ile(4R-OH,5-OH)][Trp(2-yl)]G[Tle]G); thioether 1-5)" result_value="16 nM"

// next entry
Problem: Value lookup for EC50 at 96 h; key = CC[C@H](C)[C@@H]1NC(=O)CNC(=O)[C@@H]2Cc3c([nH]c4ccccc34)SC[C@H](NC(=O)CNC1=O)C(=O)N[C@@H](CC(N)=O)C(=O)N1C[C@H](O)C[C@H]1C(=O)N[C@@H]([C@@H](C)[C@@H](O)CO)C(=O)N2 [Compound 7d] (cyclo(CN[Hyp][Ile(4R-OH,5-OH)][Trp(2-yl)]GIG); thioether 1-5)
Solution: 0.23 nM

----------
Below, each entry is listed with its recorded residual RNAP II activity at highest concentration tested.
test.target: RNA Polymerase II (Homo sapiens)
Construct: HeLaScribe® Nuclear extract in vitro transcription system (Promega, #E3092); host or cells: HeLa nuclear extract (purchased)
assay.protocol: RNA Polymerase II assay (HeLaScribe nuclear extract in vitro transcription system, RT-PCR quantification of mRNA)
Type: biochemical
recorded.conditions: highest concentration tested (range up to 1×10^−6 M)
Starred links: 1 amine or outer side, 2 acyl side, 3 side chain; linkers in the order of their positions; H or OH if unused. Positions of bridges follow the written chain, without caps; N, C: chain ends. Non-standard residues stand in square brackets, D forms with d. Residues, ends and D or L forms follow the SMILES beside them. Trp(2-yl) = O=C([C@H](Cc1c([*:3])[nH]c2ccccc12)N[*:1])[*:2]; Ile(4R-OH,5-OH) = C[C@H]([C@H](N)C(=O)O)[C@@H](O)CO; Pro(4,4-F2) = O=C(O)[C@@H]1CC(F)(F)CN1; Hyp = O=C(O)[C@@H]1C[C@@H](O)CN1; Aze = O=C(O)[C@@H]1CCN1; Aib = CC(C)(N)C(=O)O; Sar = CNCC(=O)O
Report the figure along with its unit, number first.

// solved cases for residual RNAP II activity at highest concentration tested follow
compound="CC[C@H](C)[C@@H]1NC(=O)CNC(=O)[C@@H]2Cc3c([nH]c4ccccc34)SC[C@H](NC(=O)CNC1=O)C(=O)N[C@@H](CC(N)=O)C(=O)N1CC[C@H]1C(=O)N[C@@H]([C@@H](C)[C@@H](O)CO)C(=O)N2 [Compound 7n] (cyclo([Aze][Ile(4R-OH,5-OH)][Trp(2-yl)]GIGCN); thioether 3-7)" result_value=40%
compound="CC[C@H](C)[C@@H]1NC(=O)CNC(=O)[C@@H]2Cc3c([nH]c4ccccc34)SC[C@H](NC(=O)C(C)(C)NC1=O)C(=O)N[C@@H](CC(N)=O)C(=O)N1C[C@H](O)C[C@H]1C(=O)N[C@@H]([C@@H](C)[C@@H](O)CO)C(=O)N2 [Compound 7m] (cyclo([Aib]CN[Hyp][Ile(4R-OH,5-OH)][Trp(2-yl)]GI); thioether 2-6)" result_value=15%
compound="CC[C@H](C)[C@@H]1NC(=O)CNC(=O)[C@@H]2Cc3c([nH]c4ccccc34)SC[C@H](NC(=O)CN(C)C1=O)C(=O)N[C@@H](CC(N)=O)C(=O)N1C[C@H](O)C[C@H]1C(=O)N[C@@H]([C@@H](C)[C@@H](O)CO)C(=O)N2 [Compound 7l] (cyclo(CN[Hyp][Ile(4R-OH,5-OH)][Trp(2-yl)]GI[Sar]); thioether 1-5)" result_value=10%

Problem: Fill in the recorded residual RNAP II activity at highest concentration tested for this compound, with RNA Polymerase II (Homo sapiens) as test system: CC[C@H](C)[C@@H]1NC(=O)CNC(=O)[C@@H]2Cc3c([nH]c4ccccc34)SC[C@H](NC(=O)CNC1=O)C(=O)N[C@@H](CC(N)=O)C(=O)N1CC(F)(F)C[C@H]1C(=O)N[C@@H]([C@@H](C)[C@@H](O)CO)C(=O)N2 [Compound 7q] (cyclo(CN[Pro(4,4-F2)][Ile(4R-OH,5-OH)][Trp(2-yl)]GIG); thioether 1-5)
Solution: 10%

Problem: Follow-up item: CC[C@H](C)[C@@H]1NC(=O)CNC(=O)[C@@H]2Cc3c([nH]c4ccccc34)SC[C@H](NC(=O)[C@H]3CCCN3C1=O)C(=O)N[C@@H](CC(N)=O)C(=O)N1C[C@H](O)C[C@H]1C(=O)N[C@@H]([C@@H](C)[C@@H](O)CO)C(=O)N2 [Compound 7i] (cyclo(CN[Hyp][Ile(4R-OH,5-OH)][Trp(2-yl)]GI[dP]); thioether 1-5)
Solution: 20%

----------
test.target: RNA Polymerase II (Homo sapiens, UniProt P24928)
pIC50: −log10 of the molar value. Starred links: 1 amine or outer side, 2 acyl side, 3 side chain; linkers in the order of their positions; H or OH if unused. Positions of bridges follow the written chain, without caps; N, C: chain ends. Non-standard residues stand in square brackets, D forms with d. Residues, ends and D or L forms follow the SMILES beside them. Trp(2-yl) = O=C([C@H](Cc1c([*:3])[nH]c2ccccc12)N[*:1])[*:2]; Ile(4R-OH,5-OH) = C[C@H]([C@H](N)C(=O)O)[C@@H](O)CO; Pro(4,4-F2) = O=C(O)[C@@H]1CC(F)(F)CN1; Hyp = O=C(O)[C@@H]1C[C@@H](O)CN1; Tle = CC(C)(C)[C@H](N)C(=O)O; Aze = O=C(O)[C@@H]1CCN1
Quick rule for you: pIC50 at 8 or higher means 1.0, lower means 0.0.

compound="CC[C@H](C)[C@@H]1NC(=O)CNC(=O)[C@@H]2Cc3c([nH]c4ccccc34)SC[C@H](NC(=O)CNC1=O)C(=O)N[C@@H](CC(N)=O)C(=O)N1CC(F)(F)C[C@H]1C(=O)N[C@@H]([C@@H](C)[C@@H](O)CO)C(=O)N2 [Compound 7q] (cyclo(CN[Pro(4,4-F2)][Ile(4R-OH,5-OH)][Trp(2-yl)]GIG); thioether 1-5)" classification=0.0
compound="CC[C@H](C)[C@@H]1NC(=O)CNC(=O)[C@@H]2Cc3c([nH]c4ccccc34)SC[C@H](NC(=O)[C@@H](C)NC1=O)C(=O)N[C@@H](CC(N)=O)C(=O)N1C[C@H](O)C[C@H]1C(=O)N[C@@H]([C@@H](C)[C@@H](O)CO)C(=O)N2 [Compound 7o] (cyclo(CN[Hyp][Ile(4R-OH,5-OH)][Trp(2-yl)]GI[dA]); thioether 1-5)" classification=1.0
compound="C[C@H]([C@@H]1NC(=O)[C@@H]2C[C@@H](O)CN2C(=O)[C@H](CC(N)=O)NC(=O)[C@@H]2CSc3[nH]c4ccccc4c3C[C@H](NC1=O)C(=O)NCC(=O)N[C@@H](C(C)(C)C)C(=O)NCC(=O)N2)[C@@H](O)CO [Compound 7p] (cyclo(CN[Hyp][Ile(4R-OH,5-OH)][Trp(2-yl)]G[Tle]G); thioether 1-5)" classification=0.0

Now let's try a different one.
Problem: Quick check: does CC[C@H](C)[C@@H]1NC(=O)CNC(=O)[C@@H]2Cc3c([nH]c4ccccc34)SC[C@H](NC(=O)CNC1=O)C(=O)N[C@@H](CC(N)=O)C(=O)N1CC[C@H]1C(=O)N[C@@H]([C@@H](C)[C@@H](O)CO)C(=O)N2 [Compound 7n] (cyclo([Aze][Ile(4R-OH,5-OH)][Trp(2-yl)]GIGCN); thioether 3-7) have pIC50 greater than or equal to 8?
Solution: 0.0
